biological target: T1, recombinant human PDGF-BB (human, UniProt P01127 82-190, biotin-labelled in the binding and competition ELISAs (sites not given)); assay: Biacore SPR, antibody captured by anti-human Fc, PDGF-BB injected
T1 construct: Bought protein (CST cat#8912BF) in the ELISAs and cell assays; purified recombinant PDGF-BB in Biacore; also called huPDGF-BB; hPDGF-BB
T1 sequence (P01127 82-190 limits assumed): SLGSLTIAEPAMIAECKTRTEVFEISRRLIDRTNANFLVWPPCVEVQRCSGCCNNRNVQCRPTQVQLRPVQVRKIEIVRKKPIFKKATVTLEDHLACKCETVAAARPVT
Entries and their kon values follow.

binder	kon
chBDI-5H1 (antibody, human IgG1, V domains shown, also called chimeric BDI-5H1-F6) VH: QVTLKESGPGILQPSQTLSLTCTFSGFSLSTFGMGVGWIRQPSGKGLEWLANIWWDDDKYYNPSLKNRLTISKDTSNSQAFLEITNVDTADTATYYCARISTGISSYYVMDAWGQGASVTVSS VL: QFTLTQPKSVSGSLRSTITIPCERSSGDIGDTYVSWYQQHLGRPPINVIYGNDQRPSEVSDRFSGSIDSSSNSASLTITNLQMDDEADYFCQSYDSDIDIVFGGGTKLTVL	≥ 1e+07 M⁻¹ s⁻¹
chBDI-9E8 (antibody, V domains shown, also called chimeric BDI-9E8-E7) VH: QVTLKESGPGILQPSQTLSLTCTFSGFSLSTYGMGVGWIRQPSGKGLEWLANIWWDDDKYYNPSLKNRLTISKDTSNNQAFLKITNVDTADTATYYCARIESIGTTYSFDYWGQGVMVTVSS VL: QFTLTQPKSVSGSLRSTITIPCERSSGDIGDSYVSWYQQHLGRPPINVIYADDQRPSEVSDRFSGSIDSSSNSASLTITNLQMDDEADYFCQSYDINIDIVFGGGTKLTVL	≥ 1e+07 M⁻¹ s⁻¹
chBFU-11A8-D6-C3 (antibody, human IgG1, V domains shown) VH: EVQLQQSGPELQRPGASVKLSCKASGYTFTESYIYWVKQRPEQSLELIGRIDPEDGSTDYVEKFKNKATLTADTSSNTAYMQLSSLTSEDTATYFCARFGARSYFYPMDAWGQGTSVTVSS VL: DTVLTQSPTLAVSPGERVSIPCRASESVSTLMHWYQQKPGQQPRLLIYGASNLESGVPARFSGSGSGTDFTLTIDPVEADDTATYFCQQSWNDPWTFGGGTKLELK	≥ 1e+07 M⁻¹ s⁻¹

Here's the next entry for you.
Query (binder): chBFU-3E2-B9-B8 (antibody, human IgG1, V domains shown) VH: EVQLQQSGPELQRPGASVKLSCKASGYTFTESYMYWVKQRPEQSLELIGRIDPEDGSTDYVEKFKNKATLTADTSSNTAYMQLSSLTSEDSATYFCARFGARSYFYPMDAWGQGTSVTVSS VL: DTVLTQPPALAVSPGERVSISCRASESVSTLMHWYQQKPGQQPRLLIYGASNLESGVPARFSGSGSGTDFTLTIDPVEADDTATYFCQQSWNDPWTFGGGTKLELK ; field requested: kon
≥ 1e+07 M⁻¹ s⁻¹
